Biological target: TXA2 receptor (Homo sapiens, UniProt P21731)
Construct: The human platelet membrane fraction was prepared in accordance with Experiment 1 (1); from tissue; host or cells: human platelet membrane fraction from blood of healthy volunteers
Test: Binding activity to TXA2 receptor ([3H](+)-S-145 sodium salt, human platelet membrane fraction)
Conditions: human platelet membrane fraction; 2 nM [3H](+)-S-145 sodium salt; read-out: Binding activity to TXA2 receptor in human platelet membrane fraction IC50
Experimental: Experiment 2 Binding Activity to TXA2 Receptor (1) Preparation of Human Platelet Membrane Fraction The human platelet membrane fraction was prepared in accordance with Experiment 1 (1). (2) Binding to TXA2 Receptor […]
measured-parameter: IC50 (nM)

Field: example entries. Status: answers known.
O=C(O)CCC/C=C\C[C@H]1[C@@H]2CC[C@@H](C2)[C@@H]1NC(=O)c1ccc(Cc2cc3ccccc3o2)s1    16
O=C(O)CCC/C=C\C[C@H]1[C@@H]2CC[C@@H](C2)[C@@H]1NC(=O)c1ccc(Cc2ccc(OCc3ccccc3)c(O)c2)s1    19
O=C(O)CCC/C=C\C[C@H]1[C@@H]2CC[C@@H](C2)[C@@H]1NC(=O)c1ccc(S(=O)(=O)c2ccsc2)s1    5.2
CC1(C)[C@H]2C[C@H](C/C=C\CCCC(=O)O)[C@@H](NC(=O)c3ccc(S(=O)(=O)c4ccccc4)s3)[C@@H]1C2    4.3
Cc1ccc(Cc2ccc(C(=O)N[C@H]3[C@H]4CC[C@H](C4)[C@@H]3C/C=C\CCCC(=O)O)s2)c(C)c1    48
O=C(O)CCC/C=C\C[C@H]1[C@@H]2CC[C@@H](C2)[C@@H]1NC(=O)c1ccc(Sc2ccsc2)s1    15

[I] O=C(O)CCC/C=C\C[C@H]1[C@@H]2CC[C@@H](C2)[C@@H]1NC(=O)c1csc2c(Cc3ccoc3)cccc12
[II] O=C(O)CCC/C=C\C[C@H]1[C@@H]2CC[C@@H](C2)[C@@H]1NC(=O)c1ccc(Sc2cccs2)s1
Select the item with the higher value of IC50 from the options I and II listed. Return value: the label identifying the chosen record.
I
(I: 27 nM, II: 16 nM)

* * *

test: Change of plasma concentration of drug in rat (half life of the disappearance after i.v. administration); assay type: in vivo; conditions: Jcl-SD male rats, 0.5 to 2 mg/kg intravenously, unchanged compound
measured-parameter: half life of the disappearance (min)

Field: example entries. Status: answers known.
O=C(O)CCC/C=C\C[C@H]1[C@@H]2CC[C@@H](C2)[C@@H]1NC(=O)c1ccc(S(=O)(=O)n2cccc2)s1 [I-1]    9.4
O=C(O)CCC/C=C\C[C@H]1[C@@H]2CC[C@@H](C2)[C@@H]1NC(=O)c1csc2c(Cc3ccccc3)cccc12 [I-143]    4.7

[A] CC1(C)[C@H]2C[C@H](C/C=C\CCCC(=O)O)[C@@H](NC(=O)c3ccc(Sc4cccs4)s3)[C@@H]1C2 [II-59]
[B] O=C(O)COCCCC[C@H]1[C@@H]2CC[C@@H](C2)[C@@H]1NC(=O)c1ccc(S(=O)(=O)n2cccc2)s1 [I-7M-1a]
Which value of half life of the disappearance is smaller, the one for A or the one for B ? Return value: the label identifying the chosen record.
A
(A: 11.0 min, B: 26.3 min)

* * *

molecular target: TXA2 receptor (Homo sapiens); construct: The human platelet membrane fraction was prepared in accordance with Experiment 1 (1); from tissue; host or cells: human platelet membrane fraction from blood of healthy volunteers; assay: Binding activity to TXA2 receptor ([3H](+)-S-145 sodium salt, human platelet membrane fraction); settings: human platelet membrane fraction; 2 nM [3H](+)-S-145 sodium salt; read-out: Binding activity to TXA2 receptor in human platelet membrane fraction IC50
measured-parameter: IC50 (µM)

Field: example entries. Status: answers known.
O=C(O)CCC/C=C\C[C@H]1[C@@H]2CC[C@@H](C2)[C@@H]1NC(=O)c1csc2c(Cc3ccsc3)cccc12    0.032
O=C(O)CCC/C=C\C[C@H]1[C@@H]2CC[C@@H](C2)[C@@H]1NC(=O)c1ccc(SCc2cccs2)s1    0.013
O=C(O)CCC/C=C\C[C@H]1[C@@H]2CC[C@@H](C2)[C@@H]1NC(=O)c1ccc(Cc2csc3ccccc23)s1    0.028

[A] O=C(O)CCC/C=C\C[C@H]1[C@@H]2CC[C@@H](C2)[C@@H]1NC(=O)c1csc2c(Cc3cccs3)cccc12
[B] O=C(O)CCCC[C@H]1[C@@H]2CC[C@@H](C2)[C@@H]1NC(=O)c1ccc(Sc2cccs2)s1 [I-5A-59a]
[C] O=C(O)CCC/C=C\C[C@H]1[C@@H]2CC[C@@H](C2)[C@@H]1NC(=O)c1cc2ccc(Cc3ccccc3)cc2s1
Put the molecules in ascending order of IC50. Give the labels in the order specified.
B, C, A

* * *

Target: TXA2 receptor (Homo sapiens, UniProt P21731)
Construct: The human platelet membrane fraction was prepared in accordance with Experiment 1 (1); from tissue; host or cells: human platelet membrane fraction from blood of healthy volunteers
Sequence (P21731 1-343): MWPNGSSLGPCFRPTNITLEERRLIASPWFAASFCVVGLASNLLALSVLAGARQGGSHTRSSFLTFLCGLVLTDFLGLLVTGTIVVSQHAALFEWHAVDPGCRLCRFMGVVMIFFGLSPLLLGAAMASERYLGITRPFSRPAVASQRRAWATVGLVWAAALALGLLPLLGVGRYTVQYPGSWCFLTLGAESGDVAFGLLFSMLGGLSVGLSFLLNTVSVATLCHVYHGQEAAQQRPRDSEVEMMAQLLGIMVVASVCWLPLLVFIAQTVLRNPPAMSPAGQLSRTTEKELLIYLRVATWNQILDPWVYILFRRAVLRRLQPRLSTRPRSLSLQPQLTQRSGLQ
Assay: Binding activity to TXA2 receptor ([3H](+)-S-145 sodium salt, human platelet membrane fraction)
Details: human platelet membrane fraction; 2 nM [3H](+)-S-145 sodium salt; read-out: Binding activity to TXA2 receptor in human platelet membrane fraction IC50
pIC50: −log10 of the molar value.
measured-parameter: pIC50

Field: example entries. Status: answers known.
O=C(O)CCCCCC[C@H]1[C@@H]2CC[C@@H](C2)[C@@H]1NC(=O)c1ccc(Sc2cccs2)s1 [I-7A-59a]    8.01
Cc1cccn1S(=O)(=O)c1ccc(C(=O)N[C@@H]2[C@@H](CCCC/C=C/C(=O)O)C[C@H]3C[C@@H]2C3(C)C)s1 [II-7I-55a]    8.64
CC1(C)[C@H]2C[C@H](C/C=C\CCCC(=O)O)[C@@H](NC(=O)c3ccc(Sc4cccs4)s3)[C@@H]1C2    7.85
O=C(O)CCC/C=C\C[C@H]1[C@@H]2CC[C@@H](C2)[C@@H]1NC(=O)c1ccc(S(=O)(=O)c2cccs2)s1    8.21

[1] O=C(O)CCC/C=C\C[C@H]1[C@@H]2CC[C@@H](C2)[C@@H]1NC(=O)c1ccc(CSc2cccs2)s1
[2] Cc1cccc(SCc2ccc(C(=O)N[C@H]3[C@H]4CC[C@H](C4)[C@@H]3C/C=C\CCCC(=O)O)s2)c1
Which value of pIC50 is smaller, the one for 1 or the one for 2 ? Return value: the label identifying the chosen record.
1
